Tested on: SF-268 CNS
Assay: NCI-60 one-dose screen, 48 h (100 = growth as untreated, 0 = no growth, -100 = all killed)
Conditions: 10 µM unless noted
About 83,000 compounds went through this panel and 20% of them were active in at least one assay; those are over-represented in the sample as a whole.
Quantity name: growth (%)
API: value field is a number in %; no unit string.

Below, each entry is followed by its recorded growth result.
Form entry - test system: SF-268 CNS; read-out: growth; compound: CC(NC(=O)CCl)c1ccccc1 (centres undefined)
98.3

Any idea what growth came out for `COC(=O)c1nc(N)nc(C(=O)OC)c1C(=O)c1cccc2ccccc12` on SF-268 CNS?
116

Lab note: need growth for `Nc1c(Cl)cc2c(c1Br)C(=O)c1ccccc1C2=O` on SF-268 CNS, anyone have it?
108

Form entry - test system: SF-268 CNS; read-out: growth; compound: `CCOC(=N)c1ccc(C(=N)OCC)cc1`
98.4

Request body: readout growth, system SF-268 CNS, query `COC(=O)c1nc(N)nc(C(=O)OC)c1C(=O)c1ccc(F)cc1` . Return the value.
103

Query growth on SF-268 CNS for `CCCC(=O)Oc1ccc(CC)cc1`
96.9

Report growth for `CCN(C)c1ccccc1` tested on SF-268 CNS.
99.1

Please tell me: growth of `CCNC1=CC(=O)c2ncccc2C1=O` , system SF-268 CNS?
58.3

---
Entry `COc1ccc(/C=N/NC(N)=S)cc1` , system SF-268 CNS: what growth was measured?
104

// fetch SF-268 CNS growth for `Cc1c(Cl)cc(Cl)c(N)c1Cl`
104

SF-268 CNS / growth / `CC(C)(C)OC(=O)NCCc1ccc(N)cc1` : value?
96.3

Report growth for `Clc1ccc2sc(-c3ccccc3)nc2c1` tested on SF-268 CNS.
96

Please state recorded growth (tested on SF-268 CNS) of `CCNCc1ccccc1`
104

Lab request: please report growth under test system SF-268 CNS for `c1ccc2c[n+](Cc3ccc4ccccc4n3)ccc2c1`
85.7

----------
System: UO-31 renal
Experiment: NCI-60 one-dose screen, 48 h (100 = growth as untreated, 0 = no growth, -100 = all killed)
Details: 10 µM unless noted
This is part of a sample that, as a whole, favours compounds with a hit. Of some 83,000 tested, about 20% had one in any assay. The source made the active and inactive calls. Rule for the calls: active = growth percent below 10; inactive = the rest.
Quantity name: growth

Worked cases, answers included:
What measured growth goes with `NNC(=O)Nc1ccccc1` ?
90% (inactive)

// returns reported growth for input `COCCNC(C)=O`
98.2% (inactive)

Further cases:
Fill blank: measured growth of the molecule `Nc1nc(-c2ccccn2)cc(-c2cc(-c3ccccn3)nc(N)n2)n1` is ____.
91.1% (inactive)

Would you mind telling me what growth value was observed for `CN(C)C(=S)N(C)C` ?
98.4% (inactive)

Recorded growth for `COc1ccc(/C=N/Nc2nc3ccccc3s2)cc1` , please?
62.6% (inactive)

Can you look up the measured growth of `COC(=O)c1nc(=S)[nH]c(C(=O)OC)c1C(=O)c1ccc(OC)cc1` for me?
86.8% (inactive)

I have this molecule here, `OCc1cccc(F)c1` , and I need its recorded growth.
75.1% (inactive)

Name the recorded growth for `Cc1cnc(N)s1` .
81.6% (inactive)

Given CN1C2C=CC(=O)C1C1C(=O)N(c3ccccc3)C(=O)C12 (centres undefined) , state its recorded growth.
53.9% (inactive)

Suppose we examine the molecule `N#Cc1c(N)nc2c(c(-c3ccc(Cl)cc3)nn2-c2ccccc2)c1C#N` ; what growth value has been reported?
96.6% [100 µM] (inactive)

Give the measured growth of O=C1c2ccccc2C(c2ccccc2)C1c1ccccc1 (centres undefined) .
79.4% (inactive)

growth lookup needed for COC(=O)C(Cc1cn(C(C)=O)c2ccccc12)P(=O)(OC)OC (centres undefined) , thanks.
74.8% (inactive)

What does the record list as growth for CC1NC(C)c2ccc3ccccc3c2O1 (centres undefined) ?
69.4% (inactive)

Report growth for `CCCCCCCCCCCCCCCCC(=O)O` please.
85.7% (inactive)

These data points were gathered from PubChem BioAssay (NCI).
